- Tested system: Progesterone receptor (Oryctolagus cuniculus)
- Experiment summary: Percent inhibition of [3H]- progesterone binding to rabbit uterine progesterone receptor, at 10e-7 M compound concentration
- Condition: at 0.1 µM
Readout name: inhibition (%)

1 = COC(=O)C1=C(C)N=C(C)/C(=C(/O)OC)C1c1ccc2nc(-c3ccc(OC)c(OC)c3)n(Cc3ccc(OC)c(OC)c3)c2c1 (centres undefined)
2 = COC(=O)C1=C(C)N=C(C)/C(=C(/O)OC)C1c1ccc2nc3n(c2c1)C(=O)c1ccccc1-3 (centres undefined)
3 = COC(=O)C1=C(C)N=C(C)/C(=C(\O)OC)C1c1cc2cc(-c3c(C)oc(C)c3C(=O)OC)ccc2nc1Cl (centres undefined)
4 = COC(=O)C1=C(C)N=C(C)/C(=C(/O)OC)C1c1ccc2nc(-c3ccc(O)c(OC)c3)n(Cc3ccc(O)c(OC)c3)c2c1 (centres undefined)
Prompt line: Rank the compounds listed above in increasing order of inhibition. Give the order by naming the labels one after another as requested.
Response line: 2, 3, 1, 4
(2: 0%, 3: 5%, 1: 8%, 4: 15%)
